Sourced from the supplement of paper PMC9170038

system: K4 kissing-loop RNA reporter; experiment: apparent KD of K4 kissing-loop reporter; higher = weaker reporter binding; settings: Eterna round: R107; input ligand: FMN 200 uM;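 also: bound reporter read as fluorescence of individual clusters on recovered sequencing chips by microscopy, with normalized cluster intensities fitted with a binding model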
Tag: yes if measured apparent KD of K4 kissing-loop reporter is not below 200 nM, no if it is.

GGACAAGUUUCCGAUACCAGCCUUUAUGCUGGACUAGCUUGAUCAGUGGCUAGUGAUGUUGGCCCUUGGCAGCGGGACUCUUCGG [theeternabot_exclusion_KL_Theo_B_10] | yes
AACUGCCAAGGAACAUUGUAAGAAGGUGAUACCAGCAUCGAAAGAUGCCCUUGGCAGCACCAACUUGCAGUGAUGUUGCAAGUAA [Design5] | no
CGCAAGCAGCCAGUGAUGUUGGCCGCCUUGCGAGGACCGGUACGGCCGCCACUCGAAGGCGGCUACUGGUAAACCGUCUAACGGA [Oronorenma] | no
GCAGUGAUGUUGCGCAGGUACAGUGGAGUGCGAGGACCGGUACGGCCGCCACUCGUACAGAACUAGCUAAUAUAUGGAUAGGUGA [VIII] | yes

# input Is apparent KD of K4 kissing-loop reporter for CUUCGUAAAGGCCCAGUGAUGUUGGGCACUCGAGGACCGGUACGGCCGCCACUCGCUCCCUAAGUCGCGCGCGUGGGCCACCGCC [Xeteoredre] at or above 200 nM?
# output no

# input Is apparent KD of K4 kissing-loop reporter for CAUGGUGCUCGCCAGUUGUGCGAACGGUGGGAGGAUAUGUCGCGAGACAGAAGGCCCAGUGAUGUUGGGCAGGCUCGUAGAUCGA [Mazadi] at or above 200 nM?
# output no

# input Is apparent KD of K4 kissing-loop reporter for AGGCACGAGCAAGGAUAUUGAGUAGAGUGAUGUUCUGCCUAAGUUGGCUCGUAAGAGCCUUCUUAGCGAGAAGGUGCUCGUGCCU [#2 Same State - FMN A Attempt #27 (HarryS)] at or above 200 nM?
# output yes

# input Is apparent KD of K4 kissing-loop reporter for ACAGGAUCGAAGAUCCUGAGCAGUCAGGUCCGAGGACCGGUACGGCCGCCACUCGGAGUGAUGUUCCGAAGACUGCAAAAUAAAA [#SwitchBubble 4] at or above 200 nM?
# output yes

# input Is apparent KD of K4 kissing-loop reporter for UCACUACACUGAAGGAGCGUGAGGAGACUAGUGAUGUUGGUCAGAUUCUAUGAUCGUAACUCACAGGUAGGUCGCAGUGUAGUGU [Arg B SS t7] at or above 200 nM?
# output yes

# input Is apparent KD of K4 kissing-loop reporter for AGGUUUUGAUUAGGAUAUGCACUGACGACGAGAAUAUAGUGAUGUUAUAUAAUAGGAAUUAGUAGAGUAGAAGGGAUUGAGGUUU [SSFMNB.W] at or above 200 nM?
# output yes

# input Is apparent KD of K4 kissing-loop reporter for AACAGCAAUGCGGCCGCCACUUCGAGGUCAGUGAUGUUGACAGAAUUAAAUAAAGAUCCCAAGAGGAGGACCGGGCAGUGCUGUU [whbob_SS_Tryp_B_t24] at or above 200 nM?
# output yes

----------
test system: MS2 coat protein; test: apparent KD of MS2 coat protein; designed switch direction (-1 OFF switch, 1 ON switch): 1; higher = weaker reporter binding; details: input ligand: FMN 200 uM
RESULT_TYPE: apparent KD of MS2 coat protein (nM)
Numbers only, in nM.

Here is how some sequences turned out for apparent KD of MS2 coat protein.
GCUCGAUGUGCUGUUUACAUGAGGAUCACCCAUGUAGAUGCGGAGGAUAUCUACGUGCUUUAUGUAGAGAAGGUCGUAUCGAGC [SameState NG3 #83] (Eterna round: R96, puzzle: Same State NG 3) | 33.4
GUAGCAUACCGAGGAUAUUCAUAUACAUGAGGAUCACCCAUGUUUAGGCCACAUUAGUGGCCUUGGGAGAAGGCGGAAUGCUAC [Xeonanis - 20 Mod44] (Eterna round: R96, puzzle: Same State NG 2) | 13
GCUAGAAAUAAUGCCAACAUGAGGAUCACCCAUGUAUGUUGGCAGGAUAUCGUAUGCAAAGCAUACGAGAAGGGCUAAACUAGC [Mat - Same State NG 3 - JL Mod - D9] (Eterna round: R96, puzzle: Same State NG 3) | 217
GGUAGGUUACUACCAUACAUGAGGAUCACCCAUGUAAAUGGGAAGGAUAUGGUACCUAUUUGGUACCAGAAGGUCCAAUUAAUU [JL Fiskers NG3ss - 2 mod 3] (Eterna round: R96, puzzle: Same State NG 3) | 148
GAGUGGCGGUUAGGAUAUACAGUGAUAAUGAUAGUAGAAGGAACUGACAUGAGGAUCACCCAUGUAGGACUAAUCCAGAGAGAG [Parity 31 - Jieux - Same State NG 1] (Eterna round: R96, puzzle: Same State NG 1) | 43.6
CUGAGCAGUCAAGGAUAUCACGUCGAAUAGACGUGAGAAGGUGAUUAAUACAUGAGGAUCACCCAUGUAAUACAUGAAGCUCAG [SSNG1/11-A1] (Eterna round: R96, puzzle: Same State NG 1) | 25.6
ACAUGAGACACAGGAUAUCAUGUACCUACAUGUGACAUGAGGAUCACCCAUGUGGUAAGUAUGACUGAGAAGGGUGAGAUAUGU [Equivalance 89 - Jieux - Same State NG 2] (Eterna round: R96, puzzle: Same State NG 2) | 369
AAAAUGUGAUGUCACAUGAGGAUCACCCAUGUGGUGACAACUAAGGAUAUAACGAACCAAGGCGAUUAGAAGGUAGGAUCACAA [AK SSNG3-V2-17] (Eterna round: R96, puzzle: Same State NG 3) | 102

For every item below, please supply its apparent KD of MS2 coat protein.
1. ACCCGCGACGGAGGAUAUGGGCACUCGGCGGAAUAAACCGCCAUAACAUGAGGAUCACCCAUGUCCCAGAAGGCCGUCGCAAUC [Zaonesdive] (Eterna round: R96, puzzle: Same State NG 2)
2. AAAGACAUGAGGAUCACCCAUGUACAGACAAACCAGUCUGCACAGGAUAUCCCGAGGAUAACUCGGGAGAAGGGUGGCCAAAAC [Onveenes] (Eterna round: R96, puzzle: Same State NG 3)

# output
1: 107; 2: 74.8
